- MEASUREMENT PROTOCOL: NCI Yeast Anticancer Drug Screen. Data for the mec2-1 strain (AID 157)
- RUN CONDITIONS: S. cerevisiae mec2-1 strain, at 11.0 µM, hits give high values
The panel holds about 79,000 compounds, 15% with a hit somewhere; the sample as a whole holds those more often.
QUANTITY NAME: growth inhibition (%)

- COMPOUND: "CCCCCCCCCC[Se]C#N"
  READOUT UNITS: "%"
  DATA VALUE: 6
- COMPOUND: "CCN(CCCl)c1cc(CN(C)C)cc(NC(=O)c2ccc(C(=O)Nc3cc(CN(C)C)cc(N(CC)CCCl)c3)cc2)c1"
  READOUT UNITS: "%"
  DATA VALUE: -9
- COMPOUND: "CS(=O)(=O)OCCN(CCOS(C)(=O)=O)c1ccc(C=O)cc1"
  READOUT UNITS: "%"
  DATA VALUE: 43
- COMPOUND: "C=C[C@H]1CN2CC[C@H]1C[C@@H]2[C@@H](O)c1ccnc2ccccc12"
  READOUT UNITS: "%"
  DATA VALUE: 4
- COMPOUND: "COc1cccc2c1C(=O)c1c(O)c3c(c(O)c1C2=O)C[C@@](O)(/C(C)=N\\O)C[C@@H]3OC1CC(N)C(O)C(C)O1 (stereo partly specified)"
  READOUT UNITS: "%"
  DATA VALUE: 14
- COMPOUND: "O=C1NC(=S)NC(=O)C1=Cc1ccc([N+](=O)[O-])o1"
  READOUT UNITS: "%"
  DATA VALUE: -12
- COMPOUND: "c1ccc2cc3n[se]nc3cc2c1"
  READOUT UNITS: "%"
  DATA VALUE: 8
- COMPOUND: "COc1cc2ccccc2c2cc([N+](=O)[O-])oc12"
  READOUT UNITS: "%"
  DATA VALUE: 55
- COMPOUND: "CC1CN1C1=C(Cl)C(=O)C(N2CC2C)=C(Cl)C1=O (stereo unspecified)"
  READOUT UNITS: "%"
  DATA VALUE: 6
- COMPOUND: "O=S(=O)(O)/C(=C\\c1ccccc1)c1ccccc1 (tested in a mixture with another compound)"
  READOUT UNITS: "%"
  DATA VALUE: -3
- COMPOUND: "CC(=O)[O-].O=C([CH-]C(=O)c1ccccc1)c1ccccc1.O=C([CH-]C(=O)c1ccccc1)c1ccccc1.[Sm+3]"
  READOUT UNITS: "%"
  DATA VALUE: 47
- COMPOUND: "O=C1C=CC(=O)C1(Br)Br"
  READOUT UNITS: "%"
  DATA VALUE: 23
- COMPOUND: "O=[N+]([O-])c1ccc(C=Cc2ccccc2)cc1.[C-]#[O+].[C-]#[O+].[C-]#[O+].[Cr]"
  READOUT UNITS: "%"
  DATA VALUE: 8
- COMPOUND: "Oc1c(Br)cc(Br)cc1Br"
  READOUT UNITS: "%"
  DATA VALUE: 1
- COMPOUND: "CN(CCc1ccc(Br)cc1)CCN1CCCCC1"
  READOUT UNITS: "%"
  DATA VALUE: 35
- COMPOUND: "NNc1ccccc1Cl"
  READOUT UNITS: "%"
  DATA VALUE: 84
- COMPOUND: "CCN(CCCl)CCCCNc1c2ccccc2nc2ccc(OC)cc12"
  READOUT UNITS: "%"
  DATA VALUE: 48
- COMPOUND: "CC1CC(Br)C(=O)O1 (stereo unspecified)"
  READOUT UNITS: "%"
  DATA VALUE: 31
- COMPOUND: "Cc1cc[n+](C2=C(Nc3cccc(C(F)(F)F)c3)C(=O)c3ccccc3C2=O)cc1"
  READOUT UNITS: "%"
  DATA VALUE: -17
- COMPOUND: "O=C(/C=C(\\c1ccccc1)N1CC1)c1ccccc1"
  READOUT UNITS: "%"
  DATA VALUE: 12
- COMPOUND: "O=C(O)C1C2CCC(C2)C1c1ccccc1 (stereo unspecified)"
  READOUT UNITS: "%"
  DATA VALUE: -7
- COMPOUND: "CNC(=O)ON(C(C)=O)C(=O)NC"
  READOUT UNITS: "%"
  DATA VALUE: 5
- COMPOUND: "CC(=O)O/C(=C1\\C[C@H]2[C@@H]3CC=C4C[C@@H](OC(C)=O)CC[C@]4(C)[C@H]3CC[C@]2(C)C1=O)C(F)(F)F"
  READOUT UNITS: "%"
  DATA VALUE: 4
- COMPOUND: "NCCc1ccc(OCc2ccccc2)c(OCc2ccccc2)c1"
  READOUT UNITS: "%"
  DATA VALUE: 8
- COMPOUND: "CCOP(=S)(S)OCC.[Pd]"
  READOUT UNITS: "%"
  DATA VALUE: 95
- COMPOUND: "Cn1cnc(N)c1C(=N)[Se]"
  READOUT UNITS: "%"
  DATA VALUE: 48
- COMPOUND: "[N-]=[N+]=C1C(Cl)=C(Cl)C(Cl)=C1Cl"
  READOUT UNITS: "%"
  DATA VALUE: 59
- COMPOUND: "Cc1ccc(P(c2ccc(C)cc2)c2ccc(C)cc2)cc1"
  READOUT UNITS: "%"
  DATA VALUE: 2
- COMPOUND: "CC1CN=C(Nc2ccccc2)S1 (stereo unspecified)"
  READOUT UNITS: "%"
  DATA VALUE: -80
- COMPOUND: "CN(C)CCC(C(=O)C(Br)Br)(c1ccccc1)c1ccccc1"
  READOUT UNITS: "%"
  DATA VALUE: 96
- COMPOUND: "CN(N=O)C(=O)NNC(=O)N(C)N=O"
  READOUT UNITS: "%"
  DATA VALUE: 22
- COMPOUND: "BrCC[N+]12CC[N+](CCBr)(CC1)C2"
  READOUT UNITS: "%"
  DATA VALUE: 29
- COMPOUND: "OC1(c2ccccc2)CC2CCC(C1)N2CCCC(O)(c1ccccc1)c1ccccc1 (stereo unspecified)"
  READOUT UNITS: "%"
  DATA VALUE: 4
- COMPOUND: "O=C(O)CCCOc1cc(Cl)c(Cl)cc1Cl"
  READOUT UNITS: "%"
  DATA VALUE: 4
- COMPOUND: "CCNC(=O)OCC1C2=C(C(=O)C(C)=C(N)C2=O)N2CC3C(N3C)C12OC (stereo unspecified)"
  READOUT UNITS: "%"
  DATA VALUE: 18
- COMPOUND: "NC1=NCC(c2ccc(Cl)cc2)O1 (stereo unspecified)"
  READOUT UNITS: "%"
  DATA VALUE: 3
- COMPOUND: "CCCCN(CCCC)CC(C(C)=O)C(c1ccccc1)c1c(O)c2ccccc2oc1=O (stereo unspecified)"
  READOUT UNITS: "%"
  DATA VALUE: -1
- COMPOUND: "O=[N+]([O-])O.[NH-]C1CCCCC1[NH-].[NH-]C1CCCCC1[NH-].[NH-]C1CCCCC1[NH-].[OH-].[OH-].[OH-].[Pt+4].[Pt+4].[Pt+4] (stereo unspecified)"
  READOUT UNITS: "%"
  DATA VALUE: 0
- COMPOUND: "COC(=O)C1=C(C(=O)OC)C2OC1c1cc3ccccc3cc12"
  READOUT UNITS: "%"
  DATA VALUE: 86
- COMPOUND: "c1ccc(N=c2nc(N3CCOCC3)ss2)cc1"
  READOUT UNITS: "%"
  DATA VALUE: 37
- COMPOUND: "C[N+](C)(C)CC1CCCC(C[N+](C)(C)C)C1=O (stereo unspecified)"
  READOUT UNITS: "%"
  DATA VALUE: 10
- COMPOUND: "CC[PH+](CC)CC.CC[PH+](CC)CC.[Au]"
  READOUT UNITS: "%"
  DATA VALUE: 55
- COMPOUND: "CC[C@@]1(O)C(=O)OCc2c1cc1n(c2=O)Cc2cc3c(NC(=O)CN)cccc3nc2-1"
  READOUT UNITS: "%"
  DATA VALUE: -3
- COMPOUND: "CSc1ccccc1[As](C)C"
  READOUT UNITS: "%"
  DATA VALUE: 92
- COMPOUND: "CN(C)CCSC1=Nc2ccc(Cl)cc2C(c2ccccc2Cl)=NC1"
  READOUT UNITS: "%"
  DATA VALUE: 0
- COMPOUND: "OCC(O)C(O)CO (stereo unspecified) (tested in a mixture with another compound)"
  READOUT UNITS: "%"
  DATA VALUE: -6

Origin of measurements: PubChem BioAssay (NCI)
